Molecular target: von Hippel-Lindau disease tumor suppressor/Serine/threonine-protein kinase PAK 1 (Homo sapiens, UniProt Q13153+P40337)
Sequence (Q13153 2-545 limits assumed): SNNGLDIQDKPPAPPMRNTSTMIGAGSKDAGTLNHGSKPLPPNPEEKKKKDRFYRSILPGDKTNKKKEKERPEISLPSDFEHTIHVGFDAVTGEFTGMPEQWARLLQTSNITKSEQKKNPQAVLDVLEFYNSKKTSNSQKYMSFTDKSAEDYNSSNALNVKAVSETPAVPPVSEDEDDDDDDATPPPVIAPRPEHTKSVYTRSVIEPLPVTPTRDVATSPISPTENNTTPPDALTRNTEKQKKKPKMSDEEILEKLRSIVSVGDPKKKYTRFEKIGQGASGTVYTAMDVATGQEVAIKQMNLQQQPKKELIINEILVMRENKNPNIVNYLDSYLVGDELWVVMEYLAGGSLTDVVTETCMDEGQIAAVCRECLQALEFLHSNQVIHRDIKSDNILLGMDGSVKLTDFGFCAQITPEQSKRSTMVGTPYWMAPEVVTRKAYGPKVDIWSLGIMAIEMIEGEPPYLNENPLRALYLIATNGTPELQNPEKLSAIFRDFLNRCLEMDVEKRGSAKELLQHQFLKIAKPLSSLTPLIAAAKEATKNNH
Sequence (P40337 whole entry partner): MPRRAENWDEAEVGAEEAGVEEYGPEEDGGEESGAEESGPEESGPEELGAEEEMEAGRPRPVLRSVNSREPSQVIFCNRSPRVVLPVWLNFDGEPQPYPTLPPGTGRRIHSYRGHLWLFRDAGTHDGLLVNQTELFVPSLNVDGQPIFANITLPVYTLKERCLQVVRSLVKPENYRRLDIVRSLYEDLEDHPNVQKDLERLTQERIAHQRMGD
Test: PROTAC activity at VHL/PAK1 in human MDA-MB-231 cells assessed as induction of protein degradation at 2.5 uM incubated for 48 hrs by Western blot analysis relative to control
Type: cell-based
property: Activity (%)

Cc1ncsc1-c1ccc([C@H](C)NC(=O)[C@@H]2C[C@@H](O)CN2C(=O)[C@@H](NC(=O)CCCCc2cn(CCCCCCn3c(=O)c(-c4ccc(Cl)cc4Cl)cc4cnc(NC5CC5)nc43)nn2)C(C)(C)C)cc1    24.6

1. Cc1ncsc1-c1ccc([C@H](C)NC(=O)[C@@H]2C[C@@H](O)CN2C(=O)[C@@H](NC(=O)CCCCc2cn(CCOCCOCCOCCn3c(=O)c(-c4ccc(Cl)cc4Cl)cc4cnc(NC5CC5)nc43)nn2)C(C)(C)C)cc1
2. Cc1ncsc1-c1ccc([C@H](C)NC(=O)[C@@H]2C[C@@H](O)CN2C(=O)[C@@H](NC(=O)CCCc2cn(CCCCn3c(=O)c(-c4ccc(Cl)cc4Cl)cc4cnc(NC5CC5)nc43)nn2)C(C)(C)C)cc1
Lookup: Hi there, can you help? I need to know whether 1 or 2 has lower measured Activity. Give the label of your selection.
Found: 1

###

Test system: MDA-MB-231
Assay: Antiproliferative activity against human MDA-MB-231 cells incubated for 48 hrs by MTT assay
Assay type: functional, cell-based
Details: MDA-MB-231, 48 h
property: IC50 (µM)

CNc1ncc2cc(-c3ccc(Cl)cc3Cl)c(=O)n(CCCCCCCn3cc(CNc4cccc5c4C(=O)N(C4CCC(=O)NC4=O)C5=O)nn3)c2n1 (centres undefined)    18.9

1. Cc1ncsc1-c1ccc([C@H](C)NC(=O)[C@@H]2C[C@@H](O)CN2C(=O)[C@@H](NC(=O)CCc2cn(CCOCCn3c(=O)c(-c4ccc(Cl)cc4Cl)cc4cnc(NC5CC5)nc43)nn2)C(C)(C)C)cc1
2. Cc1ncsc1-c1ccc([C@H](C)NC(=O)[C@@H]2C[C@@H](O)CN2C(=O)[C@@H](NC(=O)CCCc2cn(CCOCCn3c(=O)c(-c4ccc(Cl)cc4Cl)cc4cnc(NC5CC5)nc43)nn2)C(C)(C)C)cc1
Lookup: Hi there, can you help? I need to know whether 1 or 2 has lower measured IC50. Give the label of your selection.
Found: 1
(1: 16.9 µM, 2: 27.1 µM)

###

Biological target: von Hippel-Lindau disease tumor suppressor/Serine/threonine-protein kinase PAK 1 (Homo sapiens, UniProt Q13153+P40337)
Experiment: PROTAC activity at VHL/PAK1 in human MDA-MB-231 cells assessed as fold change in protein expression at 2.5 uM incubated for 48 hrs by Western blot analysis relative to control
Assay type: cell-based
property: fold change (FC)

Cc1ncsc1-c1ccc([C@H](C)NC(=O)[C@@H]2C[C@@H](O)CN2C(=O)[C@@H](NC(=O)CCc2cn(CCCCCn3c(=O)c(-c4ccc(Cl)cc4Cl)cc4cnc(NC5CC5)nc43)nn2)C(C)(C)C)cc1    0.826
Cc1ncsc1-c1ccc([C@H](C)NC(=O)[C@@H]2C[C@@H](O)CN2C(=O)[C@@H](NC(=O)CCCc2cn(CCCCn3c(=O)c(-c4ccc(Cl)cc4Cl)cc4cnc(NC5CC5)nc43)nn2)C(C)(C)C)cc1    0.679
Cc1ncsc1-c1ccc([C@H](C)NC(=O)[C@@H]2C[C@@H](O)CN2C(=O)[C@@H](NC(=O)CCCc2cn(CCOCCOCCn3c(=O)c(-c4ccc(Cl)cc4Cl)cc4cnc(NC5CC5)nc43)nn2)C(C)(C)C)cc1    0.973
Cc1ncsc1-c1ccc([C@H](C)NC(=O)[C@@H]2C[C@@H](O)CN2C(=O)[C@@H](NC(=O)CCCc2cn(CCCCCCn3c(=O)c(-c4ccc(Cl)cc4Cl)cc4cnc(NC5CC5)nc43)nn2)C(C)(C)C)cc1    0.709
